B1: OR4K15 (parent)
chain: GUUAACGGUCAUAGGCCAUGGAAACUAGGAGCACCAUUUCGCUGCCAGUGAAGAAAUGAACAAAGAAAAUCUGGGCCAGGCAGGCAUCAAAAGAAAUAGUCUUGCGCUCAACCAGAAAGUCUGUAAUCAUUUUAAGGGUA

- Variants of: B1
- METHOD_NOTES: self-cleavage, relative activity (ratio to wild type); higher = more cleavage; in vitro, sequencing; the parent is a self-cleaving ribozyme
Note that class boundaries on self-cleavage are I (below 0.4), II (0.4 to below 1), III (1 or more)

POLYMER_SEQUENCE: GUUAACGGUCAUAGGCCAUGGAAACUAGGAGCUCCAUUUCGCUGCCAGUGAAGAAAUGAACAAAGAAAAUCUGGGCCAGGCAGGCAUCAAAAGAAAUAGUCUUGCGCUCAACCAGAAAGUCUGUAAUCAUUUUAAGGGAA
DISCRETE_LABEL: II
//
POLYMER_SEQUENCE: GUUAACGGUCAUAGGCCAUGGAAACUAGGAGCACCAUUUCGCUGCCAGUGAAGAAUUGAACAAAGAAAAUCUGGGCCAGGCAGGCAUCAAAAGAAAUAGUCUUGCGCUCAACCGGAAAGUCUGUAAUCAUUUUAAGGGUA
DISCRETE_LABEL: I
//
POLYMER_SEQUENCE: GUUAACGGUCAUAGGCCAUGGAAACUAGGAGCACCAUUUCGCUGCCAGUGAAGAAAUGAACAAAGAAAAUUUGGGCCAGGCAGGCAUCAAAAGAAAUAGUCUUGCGCUCAACCAGAAAGUCUGUAAUCACUUUAAGGGUA
DISCRETE_LABEL: I
//
POLYMER_SEQUENCE: GUUAACGGUCAUAGGCCAUGGAAACUAGGAGCACCAUUUCGCUGCCAGUGAAGAAAUGAACAAAGAAAAUCUGGGCCAGGCAGGCAACAAAAGGAAUAGUCUUGCGCUCAACCAGAAAGUCUGUAAUCAUUUUAAGGGUA
DISCRETE_LABEL: III
//
POLYMER_SEQUENCE: GUUAACGGUCAUAGGCCAUGGAGACUAGGAGUACCAUUUCGCUGCCAGUGAAGAAAUGAACAAAGAAAAUCUGGGCCAGGCAGGCAUCAAAAGAAAUAGUCUUGCGCUCAACCAGAAAGUCUGUAAUCAUUUUAAGGGUA
DISCRETE_LABEL: II
//
POLYMER_SEQUENCE: GUUAACGGUCAUAGGCCAUGGAAACUAGGAGCACCAUUCCGCUGCCAGUGAAGAAAUGAACAAAGAAAAUCUGGGCCAGGCAGGCAUCAAAAGAAAUAGUCUUGCGCUCAACCAGAAAGUCGGUAAUCAUUUUAAGGGUA
DISCRETE_LABEL: III
//
POLYMER_SEQUENCE: GUUAACGGUCAUAGGCCAUGGAAACUAGGAGCACCAUUUCGCUGCCAGUGAAGAAAUGAACAAAGAAAAUCUGGGCCAGGCAGGCAACAAAAGAGAUAGUCUUGCGCUCAACCAGAAAGUCUGUAAUCAUUUUAAGGGUA
DISCRETE_LABEL: II
//
POLYMER_SEQUENCE: GUUAACGGUCAUAGGCCAUGGAAACUAGGAGCACCAUUUCGCUGCCAGUGAAGAAAUGGACAAAGAAAAUCUGGGCCAGGCAGGCAUCAAAAGAAAUAGUAUUGCGCUCAACCAGAAAGUCUGUAAUCAUUUUAAGGGUA
DISCRETE_LABEL: I
//
POLYMER_SEQUENCE: GUUAACGGUCAUAGGCCAUGGAAACUAGGAGCACCAUCUCGCUGCCAGUGAAGAAAUGAACAAAGAGAAUCUGGGCCAGGCAGGCAUCAAAAGAAAUAGUCUUGCGCUCAACCAGAAAGUCUGUAAUCAUUUUAAGGGUA
DISCRETE_LABEL: III
//
POLYMER_SEQUENCE: GUUAACGGUCAUAGGCCAUGGAAACUAGGAGCACCAUUUCGCUGCCUGUGAAGAAAUGAACAAAGAAAAUCUGGGCCAGGCAGGCAUCAAAAGAAAUAGUCUGGCGCUCAACCAGAAAGUCUGUAAUCAUUUUAAGGGUA
DISCRETE_LABEL: I
